system: A2780; experiment: Antiproliferative activity against human A2780 cells after 48 hrs by MTT assay; format: functional, cell-based; conditions: A2780, 48 h
Give log10 of IC50 for every item shown.
Lab note - IC50 converted to log10 from values in nM.

Form field: reported log10 of IC50 of C=C(/C=C/c1ccc(OC)c(N)c1)c1cc(OC)c(OC)c(OC)c1
2.76

Can you share its log10 of IC50? I mean this compound: CC=C(/C(C)=C/c1ccc(OC)c(O)c1)c1cc(OC)c(OC)c(OC)c1
2.70

log10 of IC50 lookup needed for CO/C=C(\C=C\c1ccc(OC)c(O)c1)c1cc(OC)c(OC)c(OC)c1 , thanks.
3.35

Recorded log10 of IC50 for C=C(/C(C)=C/c1ccc(OC)c(F)c1)c1cc(OC)c(OC)c(OC)c1 , please?
2.75

Could you tell me which log10 of IC50 is on file for CCC=C(/C=C/c1ccc(OC)c(N)c1)c1cc(OC)c(OC)c(OC)c1 ?
2.39

What log10 of IC50 value was documented for this compound, CCC=C(/C(C)=C/c1ccc(OC)c(O)c1)c1cc(OC)c(OC)c(OC)c1 ?
3.72

Suppose we examine the compound C=C(/C(C)=C/c1ccc(OC)c(O)c1)c1cc(OC)c(OC)c(OC)c1 ; what log10 of IC50 value has been reported?
1.81

Given the entry COc1ccc(/C=C(\C)C(=O)c2cc(OC)c(OC)c(OC)c2)cc1O , report its measured log10 of IC50.
0.48

# lookup: log10 of IC50 of CC=C(/C=C/c1ccc(OC)c(N)c1)c1cc(OC)c(OC)c(OC)c1
2.14

Fill blank: measured log10 of IC50 of the compound CCCC=C(/C(C)=C/c1ccc(OC)c(O)c1)c1cc(OC)c(OC)c(OC)c1 is ____.
3.47

----------
system: MCF7; assay: Antiproliferative activity against human MCF7 cells after 48 hrs by MTT assay; format: functional, cell-based; details: MCF7, 48 h
Field: log10 of IC50. Provide a value for each of the compounds that follow.
In our notation, the value equals log10 of IC50 in nM.

Name the reported log10 of IC50 value associated with the compound C=C(/C(C)=C/c1ccc(OC)cc1)c1cc(OC)c(OC)c(OC)c1
2.98

Consider the compound CCC=C(/C(C)=C/c1ccc(OC)c(O)c1)c1cc(OC)c(OC)c(OC)c1 and give its measured log10 of IC50.
3.92

Reported log10 of IC50 for C=C(/C(C)=C/c1ccc(OC)c(N)c1)c1cc(OC)c(OC)c(OC)c1 : what is it?
2.55

Record request: log10 of IC50 value, item CO/C=C(\C=C\c1ccc(OC)c(O)c1)c1cc(OC)c(OC)c(OC)c1
3.51

I have this compound here, C=C(/C=C/c1ccc(OC)c(O)c1)c1cc(OC)c(OC)c(OC)c1 , and I need its recorded log10 of IC50.
2.76

# query: log10 of IC50 of entry CCC=C(/C=C/c1ccc(OC)c(N)c1)c1cc(OC)c(OC)c(OC)c1
2.69

Given the compound CC=C(/C(C)=C/c1ccc(OC)c(O)c1)c1cc(OC)c(OC)c(OC)c1 , what is its reported log10 of IC50?
2.78

Would you mind telling me what log10 of IC50 value was observed for C=C(/C(C)=C/c1ccc(OC)c(O)c1)c1cc(OC)c(OC)c(OC)c1 ?
1.95

Give its log10 of IC50 value. Item: CCCC=C(/C(C)=C/c1ccc(OC)c(O)c1)c1cc(OC)c(OC)c(OC)c1
3.60

What measured log10 of IC50 goes with C=C(/C=C/c1ccc(OC)c(N)c1)c1cc(OC)c(OC)c(OC)c1 ?
2.90

# query: log10 of IC50 of entry C=C(/C(C)=C/c1ccc(OC)c(F)c1)c1cc(OC)c(OC)c(OC)c1
2.61

Please report the recorded log10 of IC50 for CC=C(/C=C/c1ccc(OC)c(N)c1)c1cc(OC)c(OC)c(OC)c1 .
2.39

Return reported log10 of IC50; argument: COc1ccc(/C=C(\C)C(=O)c2cc(OC)c(OC)c(OC)c2)cc1O
0.70

----------
assay: Inhibition of porcine brain tubulin polymerization preincubated for 1 min followed by addition of tubulin measured every 60 s for 90 min by DAPI staining-based fluorescence assay; parameters: species or system Sus scrofa
readout_kind: pIC50
Answer as the number alone; pIC50 is minus log10 of concentration in mol/L.

Which pIC50 reading was recorded for the compound C=C(/C(C)=C/c1ccc(OC)c(O)c1)c1cc(OC)c(OC)c(OC)c1 ?
6.00

----------
I'd be grateful if you could share measured IC50 for these entries.
system: A2780; assay: Antiproliferative activity against human A2780 cells after 48 hrs by MTT assay; assay type: functional, cell-based; conditions: A2780, 48 h
Respond with the bare value in nM.

I'd like to know its IC50. The molecule in question is C=C(/C(C)=C/c1ccc(OC)c(N)c1)c1cc(OC)c(OC)c(OC)c1
279

Which measured IC50 value corresponds to C=C(/C(C)=C/c1ccc(OC)cc1)c1cc(OC)c(OC)c(OC)c1 ?
839

Value lookup for IC50; key = C=C(/C=C/c1ccc(OC)c(O)c1)c1cc(OC)c(OC)c(OC)c1
457
